Please respond with reported ELISA hCD19 (ratio FMC63) for every item in the list.
Biological target: T1, human CD19 protein with a biotinylated AviTag (Acrobiosystems) (human, UniProt P15391 20-291, biotinylated AviTag)
T1 construct: Captured on streptavidin-coated microplate wells; also called biotinylated-AviTag-CD19; hCD19; not shown: AviTag
T1 sequence (looked up): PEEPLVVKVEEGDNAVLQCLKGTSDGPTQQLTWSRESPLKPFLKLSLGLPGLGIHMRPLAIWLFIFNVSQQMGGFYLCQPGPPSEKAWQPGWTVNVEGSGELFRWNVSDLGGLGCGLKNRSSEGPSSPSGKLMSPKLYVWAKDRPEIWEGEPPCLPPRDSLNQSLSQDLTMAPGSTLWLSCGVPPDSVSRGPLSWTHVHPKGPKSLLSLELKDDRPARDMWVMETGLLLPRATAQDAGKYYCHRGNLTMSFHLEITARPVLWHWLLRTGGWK
Test: phage ELISA, biotinylated AviTag CD19 on streptavidin wells; signal ratio to FMC63 standard

Q: Any idea what ELISA hCD19 (ratio FMC63) was measured for scFv 14 (scFv, Canine scFv (VL-linker-VH); also called P3-58) scFv: QSVLNQPPSVSAALGQRITISCTGSHTNIGSGYDVQWYQQLPGKSPRTIIYGNSDRPSGVPVRFSGSKSGNTATLTITGIQAEDEADYYCQSYDDNLNDPYVFGSGTQLTVLGGGSSRSSSSGGGGSGGGGEVQLVQSGGDLVKPGGSLRLSCVASGFAFSGKTMQWVRQAPGKGLQWVAYIQHDGSRTSYADAVKGRFTISRDNAKNTLYLQMDSLRAEDTAVYYCADHPWYGPEYWGQGTPVTVSSESPSPPNLTSGQAGQHHHHHHGAYPYDVPDYAS ?
A: 0.59 ratio to FMC63

For every record below, what is its ELISA hCD19 (ratio FMC63)?
1. scFv 36 (scFv, Canine scFv (VL-linker-VH); also called P3-25) scFv: QSVLTQPTSVSGSLGQRVTISCSGSTNNIGIVGASWYQQLPGKAPKLLVYSDGDRPSGVPDRFSGSNSGNSDTLTITGLQAEDEADYYCQSFDTTLDAYVFGSGTQLTVLGGGSSRSSSSGGGGSGGGGEEQLVEFGGGLVRPGGSLRLSCVASGFTFSSYGMTWVRQSPGKGLQWVATISDTGSTYYADTVKGRFSISRDNAKNTLYLQMNSLRADDTALYYCTKDLGVWGMDNWGPGTSLFVSSASTTAPSVTSGQAGQHHHHHHGAYPYDVPDYAS
2. scFv 20 (scFv, Canine scFv (VL-linker-VH); also called P3-12) scFv: QSVLNQPPSVSVSLGQTATISCSGESLSKYYAQWFQQKAGQVPVLVIYKDTERPSGIPDRFSGSSSGNTHTLTISGARAEDEADYYCESEVSPDTIVFGGGTHLTVLGGGSSRSSSSGGGGSGGGGEVQLVESGGDLVKPGGSLRLSCVASGFTFSSYAMSWVRQAPGEGLQWVAYINSAGSTTYYADAVKGRFTISRDNARNTVYLQMNSLRAEDTAVYYCGRYYYGLDYWGPGTSVFVSSESPSPPNLTSGQAGQHHHHHHGAYPYDVPDYAS
3. scFv 25 (scFv, Canine scFv (VL-linker-VH); also called P3-40) scFv: DIVMTQTPLSLSVSPGETASISCKASQSLLHSNGNTYLNWFRQKPGQSPQVLIYQVSNRDTGVPDRFSGSGSGTDFTLRISRVEADDAGVYYCGQGIQYPPTFGAGTKVELKGGSSRSSSSGGGGSGGGGEEQLVEFGGDLVKPGGSLRLSCVASGFTFSSLSMNWIRQAPGKGLQWVSQISPDGTITGYTDAVKGRFTISRDNAKNTLYLQMNSLRDEDTAIYYCAKSRYTDTYPFDYWGPGTLVTVSSESPSPPNLTSGQAGQHHHHHHGAYPYDVPDYAS
4. scFv 8 (scFv, Canine scFv (VL-linker-VH); also called scFv_08; P3-16) scFv: QSVLTQPASVSGSLGQKVTISCTGSRSNIGANYVGWYQQVPGIGPRTVIFGYNYRPSGVPDRFSSSKSGNSATLTISGLQAEDEAEYYCSSWDDSLRGTVFGSGTQLTVLGGGSSRSSSSGDGGSGGGGEVQLVESGGDLVKPGESLRLSCVASGFTFSSYGMSWVRQSPGKGLQWVADISYGGGTYYADAVKGRFTISRDNARNTVYLQMNSLRAEDTAVYYCASQWGDWGHFEYWGQGTLVTVSSASTTAPSVTSGQAGQHHHHHHGAYPYDVPDYAS

A:
["0.6 ratio to FMC63", "0.47 ratio to FMC63", "0.15 ratio to FMC63", "0.41 ratio to FMC63"]

Below are 4 binders. Give each one its ELISA hCD19 (ratio FMC63).
1. scFv 27 (scFv, Canine scFv (VL-linker-VH); also called P3-18) scFv: QPVLTQPPSVSVSLGQTATISCSGESLSKYYAQWFQQKAGQAPVLVIYKDTERPSGIPDRFSGSSSGNTHTLTITGIQAEDEGDYHCHSYDENLDGYVFGSGTQLTVLGGGSSRSSSSGGGGSGGGGEVQLVESGGDLVKPGGSLRLSCVGSGFTFSSYWMSWVRQAPGKGLQWIADISDSGSSTDYADAVKGRFTISRDNAKNTLYLQMNSLRAEDTAMYYCARGLGMDYWGHGTSLFVSSASTTAPSVTSGQAGQHHHHHHGAYPYDVPDYAS
2. scFv 12 (scFv, Canine scFv (VL-linker-VH); also called P3-48) scFv: SYELTQPPSATVTLRQTARLTCGGENIGRKSVQWYQQKPGQSPLLIIYADSSRPSGIPERFSGANSGNTASLTISGALAEDEADYYCQIWDRNINVFGSGTQLTVLGGGSSRSSSSGGGGSGGGGEEQLVEFGGDLVKPAGSLRLSCVASGFTFSSYDMSWVRQAPGKGLQWVATISYDGSSTYYTDAVKGRFTVSRDNAKNTLYLQMNSLRAEDTALYYCAKDSGSWSHFYGLDTWGHGTSVFVSSASTTAPSVTSGQAGQHHHHHHGAYPYDVPDYAS
3. scFv 23 (scFv, Canine scFv (VL-linker-VH); also called P3-37) scFv: DIVMTQTPLSLSVSPGEPASISCKASQSLLHSNGNTYLYWFRQKPGQSPQRLIYLVSNRDAGVPDRFSGSGSGTDFTLRISRVEADDSGIYYCGQGKQDPITFGEGTHLEIKGGSSRSSSSGGGGSGGGGELTLQESGPGLVKPSQTLSLTCVVSGGSVTTSDYWNWLRQRPGRGLEYMGYWKGRTEYNPAFQGRISITADTAKNQFSLQLNSVTADDTAIYYCAHWGSGNLDYWGPGTLVTVSSESPSPPNLTSGQAGQHHHHHHGAYPYDVPDYAS
4. scFv 26 (scFv, Canine scFv (VL-linker-VH); also called P3-03) scFv: SSVLTQPPSVSVSLGQTATISCSGESLSKYYTQWFQQKAGQAPILVIYKDTERPSGIPDRFSGSSSGNTHTLTISGARAEDEADYYCESLVDSDAYMFGSGTQLTVLGGGSSRSSSSGGGGSGGGGEVQLVETGGDLVKPGGSLRLSCVGSGFTFSSYWMSWVRQAPGKGLQWIADISDSGSSTDYADAVKGRFTISRDNAKNTLYLQMNSLRAEDTAMYYCARGLGMDYWGHGTSLFVSSASTTAPSVTSGQAGQHHHHHHGAYPYDVPDYAS

A:
1: 0.35 ratio to FMC63; 2: 0.16 ratio to FMC63; 3: 0.36 ratio to FMC63; 4: 0.65 ratio to FMC63

The measured values listed here are drawn from patent US20240358834A1.
